Reference for the values: ChEMBL document CHEMBL1201862

- System: MCF7
- EXPERIMENT: NCI tumour cell line growth inhibition, 48 h
The source made the active and inactive calls. Cut-off read from the data, not from the text of the source: active = GI50 up to about 1.1 µM and inactive = higher.
Outcome codes: active, inactive

# COMPOUND, CLASS NAME
records = [
    ("Cc1c(-c2cnccn2)ssc1=S", "inactive"),
    ("N#Cc1nc(-c2ccccc2C(=O)O)oc1N", "inactive"),
    ("N=C(N)NS(=O)(=O)c1ccc(NC(=O)c2ccc3nc4ccccc4c(Nc4ccc(S(=O)(=O)N=C(N)N)cc4)c3c2)cc1", "inactive"),
    ("Cc1c(-c2nc(N)c(C#N)c(N)c2C#N)c(=O)oc2ccccc12", "inactive"),
    ("O=c1cc(NCC2CCCCC2)[nH]c(=O)[nH]1", "inactive"),
    ("C1=Cc2cccc3occ(c23)C=C1", "inactive"),
    ("CN(Cc1cnc2c(N)nc(N)nc2n1)c1ccc(Cl)cc1", "inactive"),
    ("CC(=O)OCC1OC(O[C@@H]2C[C@H]3C(C)(C)[C@@H](OC(C)=O)CC[C@]3(C)[C@H]3CC[C@]45C[C@]4(CC[C@H]5[C@@H](C)C[C@@H](O)[C@H](O)C(C)(C)F)[C@@]32C)C(O)C(O)C1O (some centres not stated)", "inactive"),
    ("Cc1ccccc1N/C(=C(/C(Cl)=C(Cl)Cl)[N+](=O)[O-])n1nnc2ccccc21", "inactive"),
    ("Clc1ccc(C2=Cc3nc2c(-c2ccccc2)c2ccc([nH]2)c(-c2ccccc2)c2nc(c(-c4ccccc4)c4ccc([nH]4)c3-c3ccccc3)C=C2)cc1", "inactive"),
    ("COc1cc([N+](=O)[O-])c(S(=O)(=O)O)cc1N", "inactive"),
    ("CNN1C(=O)c2c(N)c(C#N)c(-c3ccccc3)c(-c3ccccc3)c2C1=O", "inactive"),
    ("O=C1c2c(ccc3c2CCC3)CC12Cc1cc3c(cc1C2)CCC3", "inactive"),
    ("Cc1cc(NS(=O)(=O)c2ccc(NC(=O)c3cccc4c(NNc5ccc(S(N)(=O)=O)cc5)c5ccccc5nc34)cc2)no1", "inactive"),
    ("Oc1ccc(CNCc2ccccc2)c2cccnc12", "active"),
    ("S=P(C1CCCCC1)(C1CCCCC1)C(c1cccnc1)N1CCCC1 (configuration not stated)", "inactive"),
    ("C=C(C)CCC1CC=[N+]([O-])OC1C(C)(C)C (configuration not stated)", "inactive"),
]
